Values were extracted from paper PMC11259170.

# ASSAY TARGET: mGPR65 (Mus musculus, UniProt Q61038)
# Construct: expressed in transfected cells; host or cells: HeLa (ATCC CCL-2), lentiviral transduction, pLX317
# Sequence (Q61038 whole entry): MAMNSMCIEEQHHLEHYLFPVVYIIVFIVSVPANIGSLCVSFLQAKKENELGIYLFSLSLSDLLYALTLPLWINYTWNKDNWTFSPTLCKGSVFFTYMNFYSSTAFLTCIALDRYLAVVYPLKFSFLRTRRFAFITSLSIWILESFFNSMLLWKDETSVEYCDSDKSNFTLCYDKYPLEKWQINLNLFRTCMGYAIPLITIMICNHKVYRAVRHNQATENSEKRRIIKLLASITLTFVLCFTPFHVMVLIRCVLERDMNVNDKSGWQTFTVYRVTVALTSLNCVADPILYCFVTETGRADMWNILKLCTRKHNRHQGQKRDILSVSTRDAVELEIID
# EXPERIMENT DESCRIPTION: cAMP detection in HeLa expression cell line, mGPR65
# Format: cell-based
# TEST PARAMETERS: 1st mGPR column pair; NA = no activity; read-out: mGPR EC50
pEC50: −log10 of the molar value.
Consider the following compounds and their measured pEC50 readings.
PROPERTY MEASURED: pEC50

- COc1ncccc1-c1cc(O)n2ncc(C(=O)Nc3ccc(Cl)cc3)c2n1: 5.66
- COc1cccc(Cc2cc(O)n3ncc(C(=O)Nc4ccc(C)cc4)c3n2)c1: 5.70
- Cc1ccc(NC(=O)c2cnn3c(O)cc(-c4ccc(-c5ccccc5C(C)C)cc4)nc23)cc1: 6.10
- Cc1ccc(NC(=O)c2cnn3c(O)cc(-c4cnc(N5CCOCC5)c(Cl)c4)nc23)cc1: 6.29
- Cc1cnc(NC(=O)c2cnn3c(O)cc(-c4ccc(COC(C)C)cc4)nc23)nc1: 5.94
